Each entry below carries its reported z-score.
Assay Procedure: Components of the Cytosolic LPS Sensing Pathway: Gene Identification via Genome-wide siRNA Screen;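 further: robust z of the log signal after scaling to non-targeting control siRNA wells of the plate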
Assay Context: RAW264.7 macrophages, IL-1a HTRF, actives lie on both sides, screened at 100 nM (by protocol), cells primed 5 h with Pam3CSK4 first
The campaign covered roughly 53,000 sequences. About 3,700 (7%) were called active. Many of the other results were omitted from the sample, so actives are more common in it than they were.
Measured Property: z-score

>>> result("CCCUUUAGCUUCCUAAUGUTT against Rhag")
0.11
>>> result("GGUACAAGACUGUCAUGUGTT against Mrpl3")
0.356
>>> result("GCCCACCGACUUUAUUAACTT against Tfap2d")
0.541
>>> result("CCAGCUAUGAAUCAGAAUGTT against Bend6")
2.6
>>> result("GCAUCAUGGUCACAAAUGGTT against Ncr1")
-0.613
>>> result("GGCGUGAAGAAGUUUGAUGTT against Pklr")
-0.431
>>> result("GGAUAAAGCAUCAGACAAATT against Hmgn1")
-0.202
>>> result("GGACUGUCAGUACUGUCAATT against Agr3")
0.445
>>> result("GGUUAUAGAUGUAAAGUCUTT against Isg20l2")
-0.847
>>> result("GGAAGCCACCUUAACAUUATT against Osgin1")
-0.814
>>> result("GGAUUUUGUUUCAGGUGGATT against Itgb8")
1.78
>>> result("GGGCCAUGAUAGGACACACTT against Nme4")
2.97
